Below, each entry is listed alongside its reported Minimum Inhibitor Concentration (MIC).
- Tested on: Pseudomonas aerugenosa
- assay: MIC by agar dilution method
- Type: cell-based
- Set-up: unit not given here
measurement type: Minimum Inhibitor Concentration (MIC)

1) Nc1nc(/C(=N/OCc2ccc(O)c(O)c2)C(=O)NC2C(=O)N3C(C(=O)[O-])=C(CSc4cnns4)CS[C@H]23)cs1.[Na+] (stereo partly shown) [Example 5] = 0.39
2) Nc1nc(/C(=N/OCc2cc(Cl)c(O)c(O)c2Cl)C(=O)NC2C(=O)N3C(C(=O)[O-])=C(CSc4cnns4)CS[C@H]23)cs1.[Na+] (stereo partly shown) [Example 1] = 0.39
3) Nc1nc(/C(=N/OCc2cc(O)c(O)c(Cl)c2)C(=O)NC2C(=O)N3C(C(=O)O)=C(CSc4cnns4)CSC23)cs1 (stereo not shown) [Example 7] = 0.78
4) Nc1nc(/C(=N/OCc2ccc(O)c(O)c2Cl)C(=O)NC2C(=O)N3C(C(=O)[O-])=C(CSc4cnns4)CS[C@H]23)cs1.[Na+] (stereo partly shown) [Example 2] = 0.78
5) Nc1nc(/C(=N/OCc2cc(O)c(O)c(F)c2)C(=O)NC2C(=O)N3C(C(=O)O)=C(CSc4cnns4)CSC23)cs1 (stereo not shown) [Example 9] = 0.78
6) C[n+]1ccc(SCC2=C(C(=O)[O-])N3C(=O)C(NC(=O)/C(=N\OCc4cc(Cl)c(O)c(O)c4Cl)c4csc(N)n4)C3SC2)cc1 (stereo not shown) [Example 3] = 0.39
7) Nc1nc(/C(=N/OCc2cc(F)c(O)c(O)c2F)C(=O)NC2C(=O)N3C(C(=O)[O-])=C(CSc4cnns4)CS[C@H]23)cs1.[Na+] (stereo partly shown) [Example 8] = 0.39

---

Property: Minimum Inhibitor Concentration (MIC); scope: individual molecules
- System: Salmonella typhi
- assay: MIC by agar dilution method
- Format: cell-based
- Design: unit not given here
measurement type: Minimum Inhibitor Concentration (MIC)

1. Nc1nc(/C(=N/OCc2cc(O)c(O)c(F)c2)C(=O)NC2C(=O)N3C(C(=O)O)=C(CSc4cnns4)CSC23)cs1 (stereo not drawn) = < 0.05
2. Nc1nc(/C(=N/OCc2cc(O)c(O)c(Cl)c2)C(=O)NC2C(=O)N3C(C(=O)O)=C(CSc4cnns4)CSC23)cs1 (stereo not drawn) = < 0.05
3. Nc1nc(/C(=N/OCc2cc(F)c(O)c(O)c2F)C(=O)NC2C(=O)N3C(C(=O)[O-])=C(CSc4cnns4)CS[C@H]23)cs1.[Na+] (stereo partly drawn) = < 0.05
